Listed here: items and their measured cell count.
Test system: A549-ACE2 infected with SARS-CoV-2
ASSAY EXPLANATION: cell count relative to DMSO; higher = less toxic
TEST SETTINGS: 0.3 µM; 24 h

| COMPOUND | RESULT UNITS | cell count |
| --- | --- | --- |
| CC(C)c1cnn2c(NCc3ccccc3)cc(NCCCCCCN)nc12 [BS-181] | % | 102 |
| [O-][n+]1ccccc1[S-].[O-][n+]1ccccc1[S-].[Zn+2] [pyrithione-zinc] | % | 99 |
| N=C(N)c1cc2ccc(OC(=O)c3cccs3)cc2s1 [BCX-1470] | % | 102 |
| OCCN1CCN(CC/C=C2/c3ccccc3Sc3ccc(C(F)(F)F)cc32)CC1 [flupentixol] | % | 107 |
| CCn1c2ccccc2c2cc(CNC)ccc21 [PhiKan-083] | % | 103 |
| CN(Cc1ccc(C(C)(C)C)cc1)Cc1cccc2ccccc12 [butenafine] | % | 101 |

###

Test system: HepG2
ASSAY EXPLANATION: cell viability relative to DMSO; higher = less toxic
TEST SETTINGS: 72 h; 100 nM

| COMPOUND | cell viability / % |
| --- | --- |
| Cc1cc(C)c(NC(=O)N(Cc2ccc3c(c2)Cc2ccccc2-3)C2CCCCCC2)c(C)c1 | 103 |
| CNCCc1ccc(O)c(O)c1 [deoxyepinephrine] | 108 |
| COc1cccc(-n2nc(C(=O)O)cc2-c2ccc(C3CCCCC3)c(Cl)c2)c1 | 101 |
| Cc1cccc(Nc2nc(-c3ccncc3)cs2)c1 | 97.2 |
| Cc1sc2c(c1C)C(c1ccc(Cl)cc1)=N[C@@H](CC(=O)Nc1ccc(OCCOCCOCCOCCNc3cccc4c3C(=O)N(C3CCC(=O)NC3=O)C4=O)cc1)c1nnc(C)n1-2 (some centres undefined) | 89.9 |
| CCCOCCn1c(=O)c(N2CCN(CCO)CC2)nc2cnc(-c3ccc(OC)nc3)cc21 | 98.8 |
| c1ccc2c(c1)CN1CCCC1=N2 | 91.6 |
| C[C@H](CCC(=O)O)[C@H]1CC[C@H]2[C@@H]3CC[C@@H]4C[C@H](O)CC[C@]4(C)[C@H]3CC[C@]12C | 108 |
| Cc1cc(CN2CCN(c3c(Br)cnc4nc(-c5ccc(N6CCN(C)CC6)cc5)[nH]c34)CC2)no1 | 106 |

###

Tested on: U2OS
ASSAY EXPLANATION: cell viability relative to DMSO; higher = less toxic
TEST SETTINGS: 72 h; 10000 nM
Note to self: use condition met only for cell viability readings below 90%; a reading exactly at 90% still gets condition not met.

| MOLECULE | ASSIGNED CLASS |
| --- | --- |
| Cc1ccsc1/C=C/C1=NCCCN1C | condition not met |
| Clc1ccc(C(c2ccc(Cl)cc2)C(Cl)(Cl)Cl)cc1 | condition not met |
| COc1cccc(-n2nc(C(=O)O)cc2-c2ccc(C3CCCCC3)c(Cl)c2)c1 | condition not met |
| C=CCn1c(=O)c2cnc(Nc3ccc(N4CCN(C)CC4)cc3)nc2n1-c1cccc(C(C)(C)O)n1 | condition met |
| O=C(c1ccc(F)c(F)c1Nc1ccc(I)cc1F)N1CC(O)([C@@H]2CCCCN2)C1 | condition met |
| CNCCc1ccc(O)c(O)c1 [deoxyepinephrine] | condition not met |
| COc1ccc(-c2cnc3c(-c4cccc5ncccc45)cnn3c2)cc1 | condition not met |

###

Listed here: items and their measured cell viability.
Tested on: U2OS
ASSAY EXPLANATION: cell viability relative to DMSO; higher = less toxic
TEST SETTINGS: 72 h; 1 nM
OBSERVATION TYPE: cell viability (%)

| COMPOUND | ASSAY RESULT |
| --- | --- |
| CC(C)c1nc(CN(C)C(=O)N[C@H](C(=O)N[C@@H](Cc2ccccc2)C[C@H](O)[C@H](Cc2ccccc2)NC(=O)OCc2cncs2)C(C)C)cs1 [Ritonavir] | 93.7 |
| Nc1nc2[nH]cc(CCc3ccc(C(=O)N[C@@H](CCC(=O)O)C(=O)O)cc3)c2c(=O)[nH]1 [pemetrexed] | 103 |
| CC(C)NC(=O)c1ccc(C#Cc2ccncc2)cn1 | 95.1 |
| COc1cc(O)c2c(c1)C(=O)c1cc(C)cc(O)c1C2=O [rheochrysidin] | 93.4 |

###

Test system: Caco-2
ASSAY EXPLANATION: cell viability relative to DMSO; higher = less toxic
TEST SETTINGS: 72 h; 1 nM
OBSERVATION TYPE: cell viability

| SMILES TEXT | ASSAY RESULT |
| --- | --- |
| CCS(=O)(=O)c1ccc2oc(-c3ccc4ccccc4c3)nc2c1 | 103% |
| Fc1ccccc1-c1nc2ccn(Cc3ccc(-c4ccc(C(F)(F)F)cc4C(F)(F)F)nn3)cc-2n1 | 101% |
| C=CCn1c(=O)c2cnc(Nc3ccc(N4CCN(C)CC4)cc3)nc2n1-c1cccc(C(C)(C)O)n1 | 106% |
| CCCCC1(COC(=O)CCC(=O)O)C(=O)N(c2ccccc2)N(c2ccccc2)C1=O | 87.1% |

###

System: HepG2
ASSAY EXPLANATION: cell viability relative to DMSO; higher = less toxic
TEST SETTINGS: 72 h; 1 nM
Listed here: items and their measured cell viability.

| COMPOUND | cell viability / % |
| --- | --- |
| C#C[C@]1(O)CC[C@H]2[C@@H]3CCC4=CC(=O)CC[C@]4(C)[C@H]3CC[C@@]21C | 109 |
| C#CC1(OCC(O)CN2CCN(c3cccc(C(F)(F)F)c3)CC2)CCCCC1 (stereo not drawn) | 96 |
| Cc1c(N)nc([C@H](CC(N)=O)NC[C@H](N)C(N)=O)nc1C(=O)N[C@H](C(=O)N[C@H](C)[C@@H](O)[C@H](C)C(=O)N[C@H](C(=O)NCCc1nc(-c2nc(C(=O)NCCC[S+](C)C)cs2)cs1)[C@@H](C)O)[C@@H](OC1OC(CO)C(O)C(O)C1OC1OC(CO)C(O)C(OC(N)=O)C1O)c1cnc[nH]1 (stereo partly drawn) | 93.4 |
| Cl/C(=C\n1cncn1)c1ccc(Cl)cc1Cl | 96.5 |
| CC(=O)Nc1ccc(C(=O)Nc2ccccc2N)cc1 | 104 |
| Cc1cccc(Nc2ccccc2C(=O)O)c1C | 101 |
| Cc1[nH]c(/C=C2\C(=O)Nc3cc(-c4ccccc4)ccc32)c(C)c1CCC(=O)O [SU16f] | 92.3 |
| CN(C)CCC(c1ccccc1)c1ccccn1 (stereo not drawn) | 96.4 |
| COc1c(C)c2c(c(O)c1C/C=C(\C)CCC(=O)OCCN1CCOCC1)C(=O)OC2 [mycophenolate-mofetil] | 103 |
| Cc1ncc([N+](=O)[O-])n1CC(O)CN1CCOCC1 (stereo not drawn) | 96.3 |
| [O-][n+]1ccccc1[S-].[O-][n+]1ccccc1[S-].[Zn+2] | 97 |
| CC[C@H](c1ccc(O)cc1)[C@@H](CC)c1ccc(O)cc1 | 92.7 |
| O[C@H]1[C@H](O)[C@@H](O)[C@H](O)[C@@H](O)[C@H]1O | 123 |
| Cc1c(C)c2c(c(C)c1O)CCC(C)(COc1ccc(CC3SC(=O)NC3=O)cc1)O2 (stereo not drawn) | 87.7 |
| CCCCN1[C@@H]2CC[C@H]1C[C@@H](OC(c1ccc(F)cc1)c1ccc(F)cc1)C2 | 96.6 |
| C[C@@H](NC(=O)c1ncnc(N)c1Cl)c1ncc(C(=O)Nc2cc(C(F)(F)F)c(Cl)cn2)s1 | 102 |
| COC(=O)C[C@](O)(CCCC(C)(C)O)C(=O)O[C@@H]1C(OC)=C[C@]23CCCN2CCc2cc4c(cc2[C@H]13)OCO4 | 98.4 |
| Clc1ccc(-c2nc3sccn3c2/C=N/OCc2ccc(Cl)c(Cl)c2)cc1 | 97 |
| COc1cccc(-c2ccc([C@@H](Oc3cc(-c4ccc(C[C@H](N)C(=O)O)cc4)nc(N)n3)C(F)(F)F)cc2)c1 | 111 |
| c1ccc2c(c1)sc1ccccc12 | 102 |
| O=S(=O)(c1cccc2cnccc12)N1CCNCC1 | 93.2 |
| CC(=O)N(O)C/C=C/c1cccc(Oc2ccccc2)c1 | 95.6 |
| C=CC(=O)Nc1cccc(Oc2nc(Nc3ccc(N4CCN(C)CC4)cc3OC)ncc2Cl)c1 | 98.1 |
| NC(=O)c1cccc2cn(-c3ccc([C@@H]4CCCNC4)cc3)nc12 | 83.9 |
| NC(CO)C(=O)NNCc1ccc(O)c(O)c1O (stereo not drawn) [benserazide] | 80.5 |
| CN1CC[C@@H]2CN3CCc4cccc(c43)[C@@H]2C1 | 106 |
| COC(=O)[C@H]1[C@H]2C[C@@H]3c4[nH]c5cc(OC)ccc5c4CCN3C[C@H]2C[C@@H](OC(=O)c2cc(OC)c(OC)c(OC)c2)[C@@H]1OC | 106 |
| CCOc1ccc(NC(=S)N2CCC(C(O)(c3ccccc3)c3ccccc3)CC2)cc1 | 99.5 |
| CN1CCN(c2cc3c(cc2F)c(=O)c(C(=O)O)cn3-c2ccc(F)cc2)CC1 | 93.6 |
| Cc1cc(C)c(N(Cc2ccccc2)S(=O)(=O)c2ccc(OCCNC(=O)c3cc4ccccc4o3)cc2)c(C(=O)NO)c1 | 93.4 |
| C(#Cc1nc2ncccc2nc1OCCN1CCCC1)c1ccccc1 | 92.4 |
| C/C(=N\c1ccccc1N)c1c(C)cc(=O)n(O)c1O | 101 |
| CC[N+](C)(CC)CCC[n+]1c(-c2ccccc2)c2cc(N)ccc2c2ccc(N)cc21 [propidium-iodide] | 93.8 |
